# target.entity: Recombinant purified human JAK3 (Homo sapiens (Human), UniProt P52333)
# Sequence (P52333 whole entry): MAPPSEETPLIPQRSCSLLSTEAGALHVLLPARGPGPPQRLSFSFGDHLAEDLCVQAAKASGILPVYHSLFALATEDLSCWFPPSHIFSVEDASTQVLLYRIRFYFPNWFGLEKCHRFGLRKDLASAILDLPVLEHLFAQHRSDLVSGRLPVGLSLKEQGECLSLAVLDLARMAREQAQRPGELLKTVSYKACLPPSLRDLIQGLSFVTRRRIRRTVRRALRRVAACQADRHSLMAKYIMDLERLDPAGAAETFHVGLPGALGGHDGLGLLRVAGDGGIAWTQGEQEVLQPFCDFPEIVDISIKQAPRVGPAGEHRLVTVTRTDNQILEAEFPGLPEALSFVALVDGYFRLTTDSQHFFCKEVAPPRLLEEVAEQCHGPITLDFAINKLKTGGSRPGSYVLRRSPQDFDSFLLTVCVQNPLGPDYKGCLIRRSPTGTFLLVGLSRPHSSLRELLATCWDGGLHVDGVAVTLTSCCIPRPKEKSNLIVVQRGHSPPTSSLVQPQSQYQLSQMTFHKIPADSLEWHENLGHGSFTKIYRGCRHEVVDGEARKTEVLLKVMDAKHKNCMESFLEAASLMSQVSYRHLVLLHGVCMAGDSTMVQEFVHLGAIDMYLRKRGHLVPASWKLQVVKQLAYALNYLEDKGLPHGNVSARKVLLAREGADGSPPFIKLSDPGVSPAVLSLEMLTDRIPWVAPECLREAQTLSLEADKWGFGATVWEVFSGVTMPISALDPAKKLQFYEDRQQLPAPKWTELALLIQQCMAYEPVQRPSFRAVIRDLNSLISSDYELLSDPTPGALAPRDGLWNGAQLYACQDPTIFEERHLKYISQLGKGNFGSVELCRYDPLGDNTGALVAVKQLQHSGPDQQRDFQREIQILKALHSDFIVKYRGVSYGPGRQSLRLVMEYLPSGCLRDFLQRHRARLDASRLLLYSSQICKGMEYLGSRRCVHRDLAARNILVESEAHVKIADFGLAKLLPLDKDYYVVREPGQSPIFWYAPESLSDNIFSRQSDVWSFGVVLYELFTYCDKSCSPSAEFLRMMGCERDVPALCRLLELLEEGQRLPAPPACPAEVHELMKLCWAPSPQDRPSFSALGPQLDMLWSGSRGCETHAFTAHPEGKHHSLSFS
# run.description: JAK3 enzyme inhibitory activity, ADP Glo kinase assay (Promega V9441)
# protocol.conditions: ATP 5 uM, 1 hour 30° C.
pIC50: −log10 of the molar value.
metric.name: pIC50

smiles.code: CC#CC(=O)N1CCC[C@@H](Nc2nc(Nc3ccc(N4CCN(C)CC4)cc3)nc3[nH]cc(Cl)c23)C1
target.entity: Recombinant purified human JAK3 (Homo sapiens (Human), UniProt P52333)
value: 7.71
//
smiles.code: C=CC(=O)N1CCC[C@@H](Nc2nc(Nc3cnoc3)nc3[nH]nc(SC)c23)C1
target.entity: Recombinant purified human JAK3 (Homo sapiens (Human), UniProt P52333)
value: 8.05
//
smiles.code: C=CC(=O)N1CCC[C@@H](Sc2nc(Nc3cnn(CC)c3)nc3[nH]cc(Cl)c23)C1
target.entity: Recombinant purified human JAK3 (Homo sapiens (Human), UniProt P52333)
value: 9.52
//
smiles.code: C=CC(=O)N1CC[C@@H](C)[C@@H](Nc2nc(Nc3cnn(CC)c3)nc3[nH]ccc23)C1
target.entity: Recombinant purified human JAK3 (Homo sapiens (Human), UniProt P52333)
value: 8.43
//
smiles.code: C=CC(=O)N1CCC[C@@H](Nc2nc(Nc3cnn(CC)c3)nc3[nH]nc(Cl)c23)C1
target.entity: Recombinant purified human JAK3 (Homo sapiens (Human), UniProt P52333)
value: 9.22

---

# target.entity: Recombinant purified human BTK (Homo sapiens (Human), UniProt Q06187)
# Sequence (Q06187 whole entry): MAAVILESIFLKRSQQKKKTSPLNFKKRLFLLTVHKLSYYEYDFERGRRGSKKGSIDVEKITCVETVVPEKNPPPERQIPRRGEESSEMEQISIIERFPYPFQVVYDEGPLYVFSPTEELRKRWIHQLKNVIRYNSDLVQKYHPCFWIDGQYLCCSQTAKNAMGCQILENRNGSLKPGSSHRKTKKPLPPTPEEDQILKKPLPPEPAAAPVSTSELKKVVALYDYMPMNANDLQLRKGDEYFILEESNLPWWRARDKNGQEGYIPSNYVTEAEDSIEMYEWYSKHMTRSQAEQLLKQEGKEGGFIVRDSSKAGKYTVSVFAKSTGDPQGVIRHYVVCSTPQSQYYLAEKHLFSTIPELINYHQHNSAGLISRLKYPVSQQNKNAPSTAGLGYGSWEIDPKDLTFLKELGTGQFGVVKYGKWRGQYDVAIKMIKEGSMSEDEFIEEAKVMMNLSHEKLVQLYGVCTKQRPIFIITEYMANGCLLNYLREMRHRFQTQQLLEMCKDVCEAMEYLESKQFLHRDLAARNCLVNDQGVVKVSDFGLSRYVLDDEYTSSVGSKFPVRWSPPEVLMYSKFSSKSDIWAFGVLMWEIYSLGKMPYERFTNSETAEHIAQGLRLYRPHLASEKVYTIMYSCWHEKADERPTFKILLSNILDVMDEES
# run.description: BTK enzyme inhibitory activity, ADP Glo kinase assay (Promega V9071)
# protocol.conditions: ATP 10 uM, 1 hour 30° C.
pIC50: −log10 of the molar value.

compound: C=CC(=O)N1CCC[C@@H](Nc2nc(Nc3cnn(CC)c3)nc3[nH]nc(Cl)c23)C1 [Example 46]
pIC50: 8.70
//
compound: C=CC(=O)N1CC[C@@H](C)[C@@H](Nc2nc(Nc3cnn(CC)c3)nc3[nH]ccc23)C1 [Example 107]
pIC50: 8.11
//
compound: CC#CC(=O)N1CCC[C@@H](Nc2nc(Nc3ccc(N4CCN(C)CC4)cc3)nc3[nH]cc(Cl)c23)C1 [Example 143]
pIC50: 6.78
//
compound: C=CC(=O)N1CCC[C@@H](Sc2nc(Nc3cnn(CC)c3)nc3[nH]cc(Cl)c23)C1 [Example 109]
pIC50: 8.70
//
compound: C=CC(=O)N1CCC[C@@H](Nc2nc(Nc3cnoc3)nc3[nH]nc(SC)c23)C1 [Example 130]
pIC50: 8.96
